Biological target: Fatty-acid amide hydrolase 1 (Rattus norvegicus)
Assay: Inhibition of FAAH in rat cerebellum membranes assessed as [3H]anandamide hydrolysis at 100 uM
Type: cell membranes
Details: Membrane
Catalogue of inhibition readings, one per entry.
// return numeric value only (unit: %, not printed)

Answered examples (4):
[[record]]
molecule = "CCCCC/C=C\\C/C=C\\C/C=C\\C/C=C\\CCCC(=O)OCC1CCOC1 (stereo not given)"
reported_property = "inhibition"
unit_of_measure = "%"
recorded_measurement = 78

[[record]]
molecule = "O=C(OCC1CO1)c1ccccc1-c1ccccc1 (racemic)"
reported_property = "inhibition"
unit_of_measure = "%"
recorded_measurement = 5

[[record]]
molecule = "O=C(OCC1CO1)c1ccccc1 (racemic)"
reported_property = "inhibition"
unit_of_measure = "%"
recorded_measurement = 19

[[record]]
molecule = "CCCCCC/C=C\\CCCCCCCC(=O)OCC1CCCCO1 (racemic)"
reported_property = "inhibition"
unit_of_measure = "%"
recorded_measurement = 82


// moving on: another record for inhibition
Entry "CCCCC/C=C\C/C=C\C/C=C\C/C=C\CCCC(=O)OC1CCOCC1" ; inhibition = 63

* * *

Biological target: Monoglyceride lipase (Rattus norvegicus) (UniProt Q8R431)
Sequence (Q8R431 whole entry): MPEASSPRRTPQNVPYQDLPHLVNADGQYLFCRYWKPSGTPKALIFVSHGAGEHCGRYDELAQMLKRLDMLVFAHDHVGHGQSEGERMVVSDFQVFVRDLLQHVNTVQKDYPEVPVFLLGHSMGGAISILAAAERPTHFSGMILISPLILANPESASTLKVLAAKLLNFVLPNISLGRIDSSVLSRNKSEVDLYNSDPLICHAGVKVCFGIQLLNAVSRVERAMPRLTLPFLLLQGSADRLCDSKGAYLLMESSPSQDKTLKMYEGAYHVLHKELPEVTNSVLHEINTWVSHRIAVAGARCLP
Assay: Inhibition of MGL in rat cerebellum cytosolic fractions assessed as [3H]2-oleoylglycerol hydrolysis at 100 uM
Assay type: tissue-based
Catalogue of inhibition readings, one per entry.
// return numeric value only (unit: %, not printed)

Entry O=C(OCC1CCCCO1)c1ccccc1 (racemic) ; inhibition = 53

Entry O=C(OCC1CO1)c1ccccc1-c1ccccc1 (racemic) ; inhibition = 29

Entry O=C(OCC1CO1)c1cccc(-c2ccccc2)c1 (racemic) ; inhibition = 40

Entry "CCCCC/C=C\C/C=C\C/C=C\C/C=C\CCCC(=O)NC[C@@H]1CCCO1" ; inhibition = 59

* * *

Biological target: Monoglyceride lipase (Rattus norvegicus, UniProt Q8R431)
Sequence (Q8R431 whole entry): as above
Test: Inhibition of MGL in rat cerebellum membrane fractions assessed as [3H]2-oleoylglycerol hydrolysis
Type: cell membranes
Catalogue of IC50 readings, one per entry.
// return numeric value only (unit: µM, not printed)

Answered examples (5):
[[record]]
compound = "CCCCC/C=C\\C/C=C\\C/C=C\\C/C=C\\CCCC(=O)OCC1CO1 (racemic)"
measured_on = "Monoglyceride lipase (Rattus norvegicus, UniProt Q8R431)"
unit_of_measure = "µM"
recorded_measurement = 19

[[record]]
compound = "CC/C=C\\C/C=C\\C/C=C\\CCCCCCCC(=O)OCC1CO1 (racemic)"
measured_on = "Monoglyceride lipase (Rattus norvegicus, UniProt Q8R431)"
unit_of_measure = "µM"
recorded_measurement = 50

[[record]]
compound = "CCCCC/C=C\\C/C=C\\C/C=C\\C/C=C\\CCCC(=O)NC[C@@H]1CCCO1"
measured_on = "Monoglyceride lipase (Rattus norvegicus, UniProt Q8R431)"
unit_of_measure = "µM"
recorded_measurement = 70

[[record]]
compound = "CCCCC/C=C\\C/C=C\\C/C=C\\C/C=C\\CCCC(=O)OCC1CCCCO1 (racemic)"
measured_on = "Monoglyceride lipase (Rattus norvegicus, UniProt Q8R431)"
unit_of_measure = "µM"
recorded_measurement = 26

[[record]]
compound = "O=C(OCC1CCCCO1)c1ccc(-c2ccccc2)cc1 (racemic)"
measured_on = "Monoglyceride lipase (Rattus norvegicus, UniProt Q8R431)"
unit_of_measure = "µM"
recorded_measurement = 80


Entry CCCCCC/C=C\CCCCCCCC(=O)OCC1CO1 (racemic) ; IC50 = 28

Entry CCCCC/C=C\C/C=C\C/C=C\C/C=C\CCCC(=O)OCC1COC(C)(C)O1 (racemic) ; IC50 = 95

Entry "CCCCC/C=C\C/C=C\C/C=C\C/C=C\CCCC(=O)OCCC1OCC(C)(C)CO1" ; IC50 = 99

Entry "CCCCC/C=C\C/C=C\C/C=C\C/C=C\CCCC(=O)NC[C@H]1CCCO1" ; IC50 = 81

Entry CCCCC/C=C\C/C=C\C/C=C\C/C=C\CCCC(=O)OCC1CCCO1 (stereo not given) ; IC50 = 75

* * *

Catalogue of Log I50 readings, one per entry.
Molecular target: Monoglyceride lipase (Rattus norvegicus)
Assay: Inhibition of MGL in rat cerebellum membrane fractions assessed as [3H]2-oleoylglycerol hydrolysis
Format: cell membranes

Answered examples (4):
[[record]]
molecule = "CCCCC/C=C\\C/C=C\\C/C=C\\C/C=C\\CCCC(=O)NCC1CCCO1 (stereo unspecified)"
recorded_measurement = "< 4"

[[record]]
molecule = "O=C(OCC1CCCCO1)c1ccccc1 (racemic)"
recorded_measurement = "< 4"

[[record]]
molecule = "O=C(OCC1CCCCO1)c1ccccc1-c1ccccc1 (racemic)"
recorded_measurement = "< 4"

[[record]]
molecule = "CCCCC/C=C\\C/C=C\\C/C=C\\C/C=C\\CCCC(=O)NCC1COC(C)(C)O1 (racemic)"
recorded_measurement = "< 4"


Entry CC/C=C\C/C=C\C/C=C\CCCCCCCC(=O)OCC1CO1 (racemic) ; Log I50 = 4.3

Entry CCCCCC/C=C\CCCCCCCC(=O)OCC1CCCCO1 (racemic) ; Log I50 = < 4

* * *

Biological target: Fatty-acid amide hydrolase 1 (Rattus norvegicus, UniProt P97612)
Sequence (P97612 whole entry): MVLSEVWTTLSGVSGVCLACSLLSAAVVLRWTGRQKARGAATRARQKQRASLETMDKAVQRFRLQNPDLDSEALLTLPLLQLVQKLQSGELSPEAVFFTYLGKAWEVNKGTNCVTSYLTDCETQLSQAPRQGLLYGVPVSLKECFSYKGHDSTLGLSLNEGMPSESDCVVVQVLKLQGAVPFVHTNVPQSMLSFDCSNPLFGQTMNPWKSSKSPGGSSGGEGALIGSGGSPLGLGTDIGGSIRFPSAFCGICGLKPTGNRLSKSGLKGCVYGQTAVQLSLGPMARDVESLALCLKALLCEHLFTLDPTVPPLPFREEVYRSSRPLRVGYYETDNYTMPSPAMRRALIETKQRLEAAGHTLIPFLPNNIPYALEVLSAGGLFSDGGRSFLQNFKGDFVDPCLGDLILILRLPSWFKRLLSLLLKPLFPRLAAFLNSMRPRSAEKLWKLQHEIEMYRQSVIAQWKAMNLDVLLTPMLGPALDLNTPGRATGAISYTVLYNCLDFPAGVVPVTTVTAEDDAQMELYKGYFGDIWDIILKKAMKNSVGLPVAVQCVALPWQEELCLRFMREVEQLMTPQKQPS
Assay: Inhibition of FAAH in rat cerebellum membranes assessed as [3H]anandamide hydrolysis
reported.property: pIC50
Conceptually, pIC50 converts a concentration in mol/L into minus its log10.

Answered examples (6):
[[record]]
compound = "CC/C=C\\C/C=C\\C/C=C\\CCCCCCCC(=O)OCC1CO1 (racemic)"
reported_property = "pIC50"
recorded_measurement = 5.80

[[record]]
compound = "O=C(OCC1CCCCO1)c1ccc(-c2ccccc2)cc1 (racemic)"
reported_property = "pIC50"
recorded_measurement = 4.49

[[record]]
compound = "CCCCC/C=C\\C/C=C\\C/C=C\\C/C=C\\CCCC(=O)NCC1CCCO1 (stereo unspecified)"
reported_property = "pIC50"
recorded_measurement = 4.25

[[record]]
compound = "CCCCC/C=C\\C/C=C\\C/C=C\\C/C=C\\CCCC(=O)OCC1CO1 (racemic)"
reported_property = "pIC50"
recorded_measurement = 4.92

[[record]]
compound = "CCCCC/C=C\\C/C=C\\C/C=C\\C/C=C\\CCCC(=O)NC[C@H]1CCCO1"
reported_property = "pIC50"
recorded_measurement = 4.00

[[record]]
compound = "CCCCC/C=C\\C/C=C\\C/C=C\\C/C=C\\CCCC(=O)OCC1CCCCO1 (racemic)"
reported_property = "pIC50"
recorded_measurement = 4.29


pIC50 of "CCCCC/C=C\C/C=C\C/C=C\C/C=C\CCCC(=O)OC1CCOCC1" , assay on Fatty-acid amide hydrolase 1 (Rattus norvegicus, UniProt P97612), is 5.28

pIC50 of O=C(OCC1CCCCO1)c1ccccc1-c1ccccc1 (racemic) , assay on Fatty-acid amide hydrolase 1 (Rattus norvegicus, UniProt P97612), is 4.37

pIC50 of CCCCC/C=C\C/C=C\C/C=C\C/C=C\CCCC(=O)OCC1CCCO1 (stereo unspecified) , assay on Fatty-acid amide hydrolase 1 (Rattus norvegicus, UniProt P97612), is 4.48

pIC50 of CCCCCCCC/C=C\CCCCCCCC(=O)OCC1CCCCO1 (racemic) , assay on Fatty-acid amide hydrolase 1 (Rattus norvegicus, UniProt P97612), is 4.54

pIC50 of CC/C=C\C/C=C\C/C=C\CCCCCCCC(=O)OCC1CCCCO1 (racemic) , assay on Fatty-acid amide hydrolase 1 (Rattus norvegicus, UniProt P97612), is 4.72

pIC50 of CCCCCC/C=C\CCCCCCCC(=O)OCC1CCCCO1 (racemic) , assay on Fatty-acid amide hydrolase 1 (Rattus norvegicus, UniProt P97612), is 5.00

pIC50 of O=C(OCC1CO1)c1cccc(-c2ccccc2)c1 (racemic) , assay on Fatty-acid amide hydrolase 1 (Rattus norvegicus, UniProt P97612), is 4.21

pIC50 of CCCCC/C=C\C/C=C\C/C=C\C/C=C\CCCC(=O)OCC1CCOC1 (stereo unspecified) , assay on Fatty-acid amide hydrolase 1 (Rattus norvegicus, UniProt P97612), is 4.96

pIC50 of O=C(OCC1CO1)c1ccc(-c2ccccc2)cc1 (racemic) , assay on Fatty-acid amide hydrolase 1 (Rattus norvegicus, UniProt P97612), is 4.46

pIC50 of CCCCCC/C=C\CCCCCCCC(=O)OCC1CO1 (racemic) , assay on Fatty-acid amide hydrolase 1 (Rattus norvegicus, UniProt P97612), is 5.09

pIC50 of "CCCCC/C=C\C/C=C\C/C=C\C/C=C\CCCC(=O)OC[C@H]1COC(C)(C)O1" , assay on Fatty-acid amide hydrolase 1 (Rattus norvegicus, UniProt P97612), is 4.55

pIC50 of CCCCC/C=C\C/C=C\CCCCCCCC(=O)OCC1CCCCO1 (racemic) , assay on Fatty-acid amide hydrolase 1 (Rattus norvegicus, UniProt P97612), is 5.12

pIC50 of O=C(OCC1CCCCO1)c1cccc(-c2ccccc2)c1 (racemic) , assay on Fatty-acid amide hydrolase 1 (Rattus norvegicus, UniProt P97612), is 4.74

pIC50 of "CCCCC/C=C\C/C=C\C/C=C\C/C=C\CCCC(=O)OC[C@@H]1COC(C)(C)O1" , assay on Fatty-acid amide hydrolase 1 (Rattus norvegicus, UniProt P97612), is 4.77

pIC50 of CCCCC/C=C\C/C=C\C/C=C\C/C=C\CCCC(=O)NCC1COC(C)(C)O1 (racemic) , assay on Fatty-acid amide hydrolase 1 (Rattus norvegicus, UniProt P97612), is 4.05
